- measured-on: T1, Hse1, P38753
- T1 sequence (P38753 208-285, looked up): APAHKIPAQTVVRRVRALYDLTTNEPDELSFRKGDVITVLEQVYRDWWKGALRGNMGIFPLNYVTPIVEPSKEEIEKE
- test-details: SPOT array
- recorded-conditions: median of control spots 1727
This listing pairs binders with measured SPOT intensity.

Example cases with answers are listed next.
>  <binder>
NSMRPPLLIPAATTK

>  <result>
5

$$$$
>  <binder>
AGKRRLPLVRFKASD

>  <result>
9

$$$$
>  <binder>
KFIPSRPAPKPPSSA

>  <result>
2

$$$$

Alright, here's another binder for you.
State, in one line, measured SPOT intensity of "ERPKRRAPPPVPKKP" 57
